Biological target: T1, recombinant human OX40L (extracellular domain, R&D Systems) (human, UniProt P23510 51-183)
T1 construct: also called hOX40L; rec. hOX40L
T1 sequence: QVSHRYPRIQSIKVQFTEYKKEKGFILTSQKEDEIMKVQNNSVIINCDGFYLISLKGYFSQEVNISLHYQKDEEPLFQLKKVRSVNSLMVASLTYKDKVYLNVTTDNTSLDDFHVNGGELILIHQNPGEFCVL
Assay: SPR, second injection after competitor OX40L18E09
propertyMeasured: Binding Level sample 2 - sample 1 (RU)
Output spec: scalar in RU, unitless text.

Here's what some known entries look like.
binder	observed
OX40L18E09 (VHH, monovalent Nanobody from E. coli; not shown: C-terminal c-myc and His6 tag) VHH: EVQLVESGGGLVQAGGSLRLSCAASRNILSLNTMGWYRHAPGKPRELVARISSNSKTDYADSVKGRFTISRDNAKNTVLLQMNSLKPEDTGVYYCNLNVWRTSSDYWGQGTQVTVSS	5
OX40L19D08 (VHH, monovalent Nanobody from E. coli; not shown: C-terminal c-myc and His6 tag) VHH: EVQLVESGGGLVQAGASLRLSCAASGRRFISNYAMGWFRQAPGQERAFVAAISRSGSITYYTDSVKGRFSISRDYAKSTVYLQMDNLKPEDTAVYYCAADGGAVRDLTTNLPDYWGRGTQVTVSS	33
OX40L01B11 (VHH, monovalent Nanobody from E. coli; not shown: C-terminal c-myc and His6 tag) VHH: EVQLVESGGGLVQAGGSLRLSCVASGRSFSTYIMGWFRQAPGKEREFVATISRSGITTRSADSVKGRFTISRDNAKNTVYLQMNSLKPEDTAVYYCAAGPYVEQTLGLYQTLGPWDYWGQGTQVTVSS	48
OX40L15B07 (VHH, monovalent Nanobody from E. coli; not shown: C-terminal c-myc and His6 tag) VHH: EVQLVESGGGLVQAGGSLRLSCAASRSIGRLDRMGWYRHRTGEPRELVATITGGSSINYGDFVKGRFTISIDNAKNTVYLQMNNLKPEDTAVYYCNFNKYVTSRDTWGQGTQVTVSS	2

stdin: Give me measured Binding Level sample 2 - sample 1 (RU), please, for this binder: OX40L01E10 (VHH, monovalent Nanobody from E. coli; not shown: C-terminal c-myc and His6 tag) VHH: EVQLVESGGGLVQAGDSLRLSCAASGLTFSSFAMGWFRQAPGKEREFVAAISRSGYGTSEADSVRDRFIISRDNAKNTVTLHLSRLKPEDTAVYYCAAEHTLGRPSRSQINYLYWGQGTQVTVSS
stdout: -2

stdin: Give me measured Binding Level sample 2 - sample 1 (RU), please, for this binder: OX40L01E07 (VHH, monovalent Nanobody from E. coli; not shown: C-terminal c-myc and His6 tag) VHH: EVQLVESGGGLVQAGGSLRLSCAASGRTFSSIYAKGWFRQAPGKEREFVAAISRSGRSTSYADSVKGRFTISRDNAKNTVYLQMNSLKPEDTAVYYCAAVGGATTVTASEWDYWGLGTQVTVSS
stdout: 45

stdin: Give me measured Binding Level sample 2 - sample 1 (RU), please, for this binder: OX40L19A07 (VHH, monovalent Nanobody from E. coli; not shown: C-terminal c-myc and His6 tag) VHH: EVQLVESGGGLVQAGGSLRLSCAASGFTLDDYAIAWFRQAPGKEREGVSRIKISNGRTTYAGSVKGRFTISSDNAKNTVYLQMNSLNAEDTAVYYCAADRSSLLFGSNWDRKARYDYWGQGTQVTVSS
stdout: 2

From: patent US20150218281A1
